Molecular target: Gs-coupled human A2A receptor (Homo sapiens, UniProt P29274)
Construct: The endogenous functional activity of the Gs-coupled human A2A receptor was measured in T cells; endogenous in cells
Sequence (P29274 whole entry): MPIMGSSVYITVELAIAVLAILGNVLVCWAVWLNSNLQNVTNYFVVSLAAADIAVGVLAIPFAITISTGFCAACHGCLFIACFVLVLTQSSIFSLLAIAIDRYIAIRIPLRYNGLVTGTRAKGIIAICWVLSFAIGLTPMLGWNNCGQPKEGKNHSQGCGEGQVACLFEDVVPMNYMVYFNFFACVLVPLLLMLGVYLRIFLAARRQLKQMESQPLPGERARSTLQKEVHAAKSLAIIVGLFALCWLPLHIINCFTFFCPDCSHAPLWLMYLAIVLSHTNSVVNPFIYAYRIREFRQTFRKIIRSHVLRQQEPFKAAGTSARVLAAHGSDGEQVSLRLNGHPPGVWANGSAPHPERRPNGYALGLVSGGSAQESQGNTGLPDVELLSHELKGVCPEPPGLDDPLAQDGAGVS
Experiment: Human T cell assay, endogenous A2A receptor, cAMP (HTRF)
METRIC_NAME: IC50

query: Check the records and state IC50 for O=C(c1cc2c(cn1)c(-c1cnc3c(F)cccn13)nn2CC(F)(F)F)N1[C@@H]2CC[C@H]1C[C@@H](O)C2 [Compound 85]
result: < 0.1 µM

query: Return reported IC50. Input compound: O=C(c1cc2c(cn1)c(-c1coc3ccc(F)cc13)nn2CC(F)(F)F)N1CCCOCC1 [Compound 109]
result: < 0.1 µM

query: Please report IC50 for the following compound: O=C(c1cc2c(cn1)c(-c1coc3ccccc13)nn2CC(F)(F)F)N1CCOCC(O)C1 (stereo not drawn) [Compound 224]
result: < 0.1 µM
